Data credit: ChEMBL document CHEMBL3853276

Measured pIC50 accompanies every entry in the list below.
# subject.of.test: Cholinesterase (Equus caballus, UniProt P81908)
# Sequence (P81908 whole entry): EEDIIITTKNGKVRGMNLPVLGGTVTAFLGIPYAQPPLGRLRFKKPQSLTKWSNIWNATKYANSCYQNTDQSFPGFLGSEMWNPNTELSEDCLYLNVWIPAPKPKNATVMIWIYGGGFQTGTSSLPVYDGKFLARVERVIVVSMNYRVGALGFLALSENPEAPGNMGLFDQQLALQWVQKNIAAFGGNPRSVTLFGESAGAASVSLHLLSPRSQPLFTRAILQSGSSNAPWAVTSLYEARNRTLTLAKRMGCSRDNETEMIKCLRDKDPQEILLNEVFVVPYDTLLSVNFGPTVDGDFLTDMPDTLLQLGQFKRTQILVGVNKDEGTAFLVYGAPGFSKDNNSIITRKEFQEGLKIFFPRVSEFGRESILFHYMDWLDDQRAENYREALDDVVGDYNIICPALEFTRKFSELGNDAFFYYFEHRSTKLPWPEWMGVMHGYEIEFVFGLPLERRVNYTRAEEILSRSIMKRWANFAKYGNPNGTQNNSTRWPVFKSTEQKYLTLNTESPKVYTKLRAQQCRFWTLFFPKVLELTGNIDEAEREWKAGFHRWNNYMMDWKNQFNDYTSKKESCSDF
# assay.notes: Inhibition of equine serum BuChE using ATCI as substrate preincubated for 30 mins followed by substrate addition measured after 5 mins by DTNB-based spectrophotometric analysis
pIC50: −log10 of the molar value.
measure.name: pIC50

structure.as.smiles: CN1CC[C@@H]2C[C@H](O)[C@H]3OC(=O)c4c(cc5c(c4O)OCO5)[C@H]3[C@@H]21
result: 4.17
//
structure.as.smiles: CO[C@H]1[C@H]2C(=CC[C@@H]1O)[C@H]1CN2Cc2cc3c(cc21)OCO3
result: < 3.70
//
structure.as.smiles: O[C@H]1[C@H]2c3cc4c(cc3CN3CCC(=C[C@@H]1O)[C@H]23)OCO4
result: < 3.70
//
structure.as.smiles: O[C@H]1C=C2[C@H]3CN(Cc4cc5c(cc43)OCO5)[C@H]2C[C@@H]1O
result: < 3.70
//
structure.as.smiles: CO[C@H]1C=C2[C@H]3C[N@@](Cc4cc5c(cc43)OCO5)[C@H]2C[C@@H]1O
result: < 3.70

###

System: Acetylcholinesterase (Electrophorus electricus) | Read-out: pIC50
Sequence (O42275 whole entry): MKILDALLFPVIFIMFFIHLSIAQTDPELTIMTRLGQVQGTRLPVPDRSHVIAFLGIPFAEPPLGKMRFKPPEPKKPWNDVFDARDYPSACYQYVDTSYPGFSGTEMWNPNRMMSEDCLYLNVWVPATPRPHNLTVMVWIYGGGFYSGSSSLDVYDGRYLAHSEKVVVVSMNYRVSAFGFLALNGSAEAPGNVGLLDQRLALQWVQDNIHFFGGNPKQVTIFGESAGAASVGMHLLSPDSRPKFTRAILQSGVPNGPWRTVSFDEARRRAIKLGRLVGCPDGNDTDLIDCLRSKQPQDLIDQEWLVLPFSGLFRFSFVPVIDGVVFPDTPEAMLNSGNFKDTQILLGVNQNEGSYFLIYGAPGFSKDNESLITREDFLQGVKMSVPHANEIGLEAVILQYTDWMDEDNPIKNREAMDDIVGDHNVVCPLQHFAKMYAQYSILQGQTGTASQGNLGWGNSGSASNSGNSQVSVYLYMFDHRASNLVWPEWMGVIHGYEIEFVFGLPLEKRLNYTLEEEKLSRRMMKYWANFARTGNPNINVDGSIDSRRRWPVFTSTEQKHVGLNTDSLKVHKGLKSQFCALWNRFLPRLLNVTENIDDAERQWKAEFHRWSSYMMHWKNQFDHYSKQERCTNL
pIC50: −log10 of the molar value.

compound: O[C@H]1C=C2[C@H]3CN(Cc4cc5c(cc43)OCO5)[C@H]2C[C@@H]1O
subject.of.test: Acetylcholinesterase (Electrophorus electricus)
pIC50: < 3.70
//
compound: CO[C@H]1[C@H]2C(=CC[C@@H]1O)[C@H]1CN2Cc2cc3c(cc21)OCO3
subject.of.test: Acetylcholinesterase (Electrophorus electricus)
pIC50: < 3.70
//
compound: CN1CC[C@@H]2C[C@H](O)[C@H]3OC(=O)c4c(cc5c(c4O)OCO5)[C@H]3[C@@H]21
subject.of.test: Acetylcholinesterase (Electrophorus electricus)
pIC50: 3.94
//
compound: CO[C@H]1C=C2[C@H]3C[N@@](Cc4cc5c(cc43)OCO5)[C@H]2C[C@@H]1O [MONTANINE]
subject.of.test: Acetylcholinesterase (Electrophorus electricus)
pIC50: < 3.70
